procedure_details: Pharmacokinetic analysis after a single dose by oral gavage
Format: in vivo, NOD/SCID mice
cond: female, NOD/SCID, mouse, plasma; 2 mg/kg oral gavage, mice
metric_name: Cmax (ng/mL)
Enter your answer as a number in ng/mL; do not include the unit.

stdin: Data request, read-out Cmax, for COC(=O)C[C@](O)(CCCC(C)(C)O)C(=O)O[C@@H]1C(OC)=C[C@]23CCCN2CCc2cc4c(cc2[C@H]13)OCO4
stdout: 97.2

* * *

procedure_details: Pharmacokinetic analysis after a single dose by oral gavage
Assay type: in vivo, NOD/SCID mice
cond: female, NOD/SCID, mouse, plasma; 2 mg/kg oral gavage, mice; read-out: Vz/F
metric_name: Vd/F (L)
Enter your answer as a number in L; do not include the unit.

stdin: Data request, read-out Vd/F, for COC(=O)C[C@](O)(CCCC(C)(C)O)C(=O)O[C@@H]1C(OC)=C[C@]23CCCN2CCc2cc4c(cc2[C@H]13)OCO4
stdout: 0.453

* * *

procedure_details: Pharmacokinetic analysis after a single dose by oral gavage
Assay type: in vivo, NOD/SCID mice
cond: female, NOD/SCID, mouse, plasma; 0.7 mg/kg oral gavage, mice
metric_name: AUC(0-inf) (ng·h/mL)
Enter your answer as a number in ng·h/mL; do not include the unit.

stdin: Data request, read-out AUC(0-inf), for COC(=O)C[C@](O)(CCCC(C)(C)O)C(=O)O[C@@H]1C(OC)=C[C@]23CCCN2CCc2cc4c(cc2[C@H]13)OCO4 [HHT, homoharringtonine]
stdout: 440

* * *

procedure_details: Pharmacokinetic analysis after a single dose by oral gavage
Assay type: in vivo, NOD/SCID mice
cond: female, NOD/SCID, mouse, plasma; 2 mg/kg oral gavage, mice; read-out: Terminal t½ (converted)
Method: We evaluated PK parameters after administration of a single dose of HHT by oral gavage to mice of 0.4 mg/kg, 0.7 mg/kg and 2 mg/kg (Table 1). […] Treatment with 0.4 mg/kg HTT by gavage most closely approximated human exposures. […] Female NOD/SCID mice (6-7 weeks) were administered homoharringtonine (HHT) by oral gavage. […] The supernatant was evaluated by LC-MS/MS using a Shimadzu (Columbia, MD) Prominence LC coupled to an AB Sciex (Framingham, MA) 3200 Qtrap mass spectrometer. […]
metric_name: half-life (h)
Enter your answer as a number in h; do not include the unit.

stdin: Data request, read-out half-life, for COC(=O)C[C@](O)(CCCC(C)(C)O)C(=O)O[C@@H]1C(OC)=C[C@]23CCCN2CCc2cc4c(cc2[C@H]13)OCO4
stdout: 6.74

* * *

procedure_details: Pharmacokinetic analysis after a single dose by oral gavage
Type: in vivo, NOD/SCID mice
cond: female, NOD/SCID, mouse, plasma; 0.7 mg/kg oral gavage, mice; read-out: Terminal t½ (converted)
metric_name: half-life (min)
Enter your answer as a number in min; do not include the unit.

stdin: Data request, read-out half-life, for COC(=O)C[C@](O)(CCCC(C)(C)O)C(=O)O[C@@H]1C(OC)=C[C@]23CCCN2CCc2cc4c(cc2[C@H]13)OCO4
stdout: 168

* * *

procedure_details: Pharmacokinetic analysis after a single dose by oral gavage
Type: in vivo, NOD/SCID mice
cond: female, NOD/SCID, mouse, plasma; 0.7 mg/kg oral gavage, mice; read-out: Vz/F
metric_name: Vd/F (L)
Enter your answer as a number in L; do not include the unit.

stdin: Data request, read-out Vd/F, for COC(=O)C[C@](O)(CCCC(C)(C)O)C(=O)O[C@@H]1C(OC)=C[C@]23CCCN2CCc2cc4c(cc2[C@H]13)OCO4 [HHT, homoharringtonine]
stdout: 0.123
